- System: Wild type
- experimental_protocol: S. aureus survival, RN4220 and DeltatarO strains – OD600, teichoic acid synthesis inhibitors, primary screen (AID 463173)
- condition_summary: S. aureus RN4220 wild type/DeltatarO growth, OD600, 18 h, active compounds read low, screened at 18.75 µg/mL (by protocol)
Hit rate of the full screen: of about 52,000 compounds, about 1,700 (3.3%) were called active. Only a selection was taken, and actives are over-represented in it overall.
Listed below: survival values for each entry.
endpoint: survival (%)

1) CCOC(=O)c1c(C)[nH]c(C)c1S(=O)(=O)N(C)CC(=O)Nc1ccc(C)c(N(C)C)c1: 73
2) CN(C)S(=O)(=O)c1ccc(S(=O)(=O)N2CCC(c3nc4c(nnn4Cc4cccc(F)c4)c(=O)[nH]3)CC2)cc1: 113
3) Cc1cccc(Cn2nc(C)n3c(cc4cc(C)ccc43)c2=O)c1: 79
4) CC1CCc2c(sc3nnn(Cc4ccc(F)cc4)c(=O)c23)C1 (stereo unspecified): 1
5) O=C(CSc1nc2c([nH]c3ccccc32)c(=O)n1-c1ccccc1)N1CCCCC1: 69
6) CCOC(=O)c1[nH]c(C)c(CCC(=O)NCc2cccc(C)c2)c1C: 105
7) CCN1CCN(c2cc(C)c3cc(NC(=O)c4cc(OC)c(OC)c(OC)c4)ccc3n2)CC1: 73
8) CCOc1ccc(-n2c(SCC(=O)NCc3ccco3)nc3c([nH]c4ccccc43)c2=O)cc1: 10
9) COc1ccccc1CC(=O)Nc1ccc2nc(N3CCC(C)CC3)cc(C)c2c1: 71
10) COc1ccc(C(=O)Nc2ccc3nc(N4CCC(C)CC4)cc(C)c3c2)cc1: 86
11) Cc1ccccc1-c1nc(CS(=O)(=O)CC(=O)NCCCc2ccccc2)c(C)o1: 138
12) Cc1ccc(NCc2cc3cc4c(cc3n(CC(=O)Nc3ccc(C)cc3)c2=O)OCCO4)cc1: 0
13) CC1CCc2c(sc3nnn(Cc4ccccc4Cl)c(=O)c23)C1 (stereo unspecified): 16
14) Cc1c(C(=O)N2CCC(C)CC2)c(S(=O)(=O)NCc2ccc(Br)cc2)c(C)n1C: 80
15) CCCOc1ccc(-c2cccc(NS(=O)(=O)c3ccc(CC)cc3)c2)nn1: 69
16) Cc1nc(SCC(=O)OC(C)(C)C)c2c3c(sc2n1)CCCC3: 15
17) COC(=O)c1ccc(Cn2nnc3sc4c(c3c2=O)CCCC4)cc1: 77
18) COC(=O)c1ccc(CSc2nc3c([nH]c4ccccc43)c(=O)n2-c2ccc(Cl)cc2)o1: 121
19) Cc1ccc(OC(=O)c2snnc2C)cc1C: 117
20) COc1ccc(C(=O)c2cnc3ccc(C)cc3c2S(=O)(=O)c2ccccc2)cc1: 79
21) Cc1ccc(Cn2nnc3sc4c(c3c2=O)CCC(C)C4)cc1 (stereo unspecified): 60
22) Cc1ccc(-n2ncc3c(NCC(C)C)ncnc32)c(C)c1: 10
23) COc1ccccc1C(=O)Nc1ccc2nc(N3CCC(C)CC3)cc(C)c2c1: 0
24) Cc1ccc(-n2ncc3c(N(CC(C)C)CC(C)C)ncnc32)c(C)c1: 71
25) O=C(CSc1nc2c([nH]c3ccccc32)c(=O)n1-c1ccc(F)cc1)NCc1ccco1: 88
26) CCn1c(C(=O)N2CCC(C(=O)N3CCN(c4ccc(OC)cc4)CC3)CC2)cc2sccc21: 62
27) Cc1ccccc1C(=O)Nc1ccc2c(c1)CCCN2C(=O)c1cccs1: 77
28) O=C(CSc1nc2c([nH]c3ccccc32)c(=O)n1-c1ccccc1)N1CCCCCC1: 78
29) CNS(=O)(=O)c1cn(CC(=O)N2CCN(c3ccc(OC)cc3)CC2)cc1S(=O)(=O)NC: 69
30) COc1cc2ncc(C(=O)c3ccc(C)cc3)c(N3CCCCC3)c2cc1OC: 2
31) COc1cccc(NC(=O)CSc2nc3c([nH]c4ccccc43)c(=O)n2-c2ccccc2)c1: 67
32) CCOc1cc(C#N)c(NC(=O)c2cccc(S(=O)(=O)N3CCOCC3)c2)cc1OCC: 131
33) COc1ccccc1CNC(=O)Cn1c(=O)nc(-c2ccccc2)c2ccccc21: 67
34) CCOc1ccc(S(=O)(=O)NCC(c2ccco2)S(=O)(=O)c2ccc(F)cc2)cc1 (stereo unspecified): 90
35) CNS(=O)(=O)c1cn(CC(=O)N2CCN(c3ccc(Cl)cc3)CC2)cc1S(=O)(=O)NC: 124
36) CC(C)(C)c1ccc(C(=O)Nc2c(C(=O)c3ccc(F)cc3)oc3ccccc23)cc1: 73
37) Nc1n[nH]c(CCc2ccccc2)n1: 121
38) COc1cc(NS(=O)(=O)c2ccc3c(c2)CCN3S(C)(=O)=O)cc(OC)c1: 73
39) CCOC(=O)CNC(=O)CC(c1cc(OC)c(OC)c(OC)c1)N1Cc2ccccc2C1=O (stereo unspecified): 60
40) Cc1cccc(C(=O)NNc2ncnc3c2cnn3-c2ccc(C)cc2C)c1: 124
41) O=C(CSc1nc(-c2ccccc2)cc(=O)[nH]1)c1ccccc1: 119
